Where do these numbers come from? They come from PubChem BioAssay.

assay_info: HepG2 cytotoxicity, primary screen, cytotoxicity control for P. falciparum antimalarial project, cell-based, ATP luminescence (AID 2303);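 note: 0% = DMSO wells and 100% = digitonin-killed cells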
test_conditions: HepG2 viability, 24-48 h, at 10 µM, stronger effect = higher value
Catalogue of molecules with associated inhibition

[
  {
    "molecule": "O=C(NCc1cccc2ccccc12)c1ccc(CNC2CCN(Cc3ccccc3)CC2)cc1",
    "inhibition (%)": 15
  },
  {
    "molecule": "Nc1[nH]c2ccccc2c(=O)c1-c1nc2ccccc2s1",
    "inhibition (%)": 16
  },
  {
    "molecule": "O=C(Nc1cccc(CN2CCCN(Cc3ccc4c(c3)OCO4)CC2)c1)c1ccc2ccccc2c1",
    "inhibition (%)": 7
  },
  {
    "molecule": "CCOC(=O)c1ccc(N2CCCCC2)c(NC(=O)C(Cl)(Cl)Cl)c1",
    "inhibition (%)": 11
  },
  {
    "molecule": "Cc1cc(Nc2nc(Nc3cccc(Cl)c3)nc3ccccc23)n[nH]1",
    "inhibition (%)": 9
  },
  {
    "molecule": "NC(=O)c1ccccc1Nc1nc(Nc2ccn[nH]2)ncc1Cl",
    "inhibition (%)": 67
  },
  {
    "molecule": "OC1(c2ccc(Br)cc2)CCN(C2CCN(Cc3ccccc3)CC2)CC1",
    "inhibition (%)": 8
  },
  {
    "molecule": "Fc1ccc2[nH]cc(CCNCc3ccc(-c4cccc(-c5nc6ccccc6[nH]5)c4)cc3)c2c1",
    "inhibition (%)": 69
  },
  {
    "molecule": "NC[C@H](CC1CCCCC1)NC(=O)c1ccc(-c2ccnc3[nH]ccc23)s1",
    "inhibition (%)": 39
  },
  {
    "molecule": "O=C(NCCN1CCCC1)c1cccc(-c2ccc(-c3nc4ccc(C(F)(F)F)cc4[nH]3)cc2)c1",
    "inhibition (%)": 34
  },
  {
    "molecule": "COc1ccc(CN2CCC(CNCCc3c(Cl)cccc3Cl)CC2)cc1",
    "inhibition (%)": 45
  },
  {
    "molecule": "O=C(NCCN1CCC(c2ccncc2)CC1)c1cccc(Nc2nccc(Nc3ccc(Oc4ccccc4)cc3)n2)c1",
    "inhibition (%)": 60
  },
  {
    "molecule": "COc1ccc(-c2cnc3ccc(NC4CCC(O)CC4)nn23)cn1 (stereo not drawn)",
    "inhibition (%)": 54
  }
]
